# protocol text: gradient 5% acetonitrile 3 min, to 50% in 2 min, to 85% in 15 min, held 3 min, 100 µL/min
# measurement conditions: column: Zorbax Extend-C18 2.1 x 50 mm; eluents: water / acetonitrile, 0.1% formic acid
measured property: RP-LC retention time (s)
Answer in s, number only, no unit symbol.

// below: answered molecules
# molecule, value unit, RP-LC retention time
records = [
    ("CCOC(=O)C1CCN(c2cc3c(cc2NC(=O)NC(C)C)n(C)c(=O)n3C)CC1", "s", 713),
    ("O=S(=O)(NCC(O)C1CCCCC1)c1ccc(OC(F)(F)F)cc1 (centres undefined)", "s", 949),
    ("CCS(=O)(=O)N1C[C@@H](COC)[C@H](C(N)=O)C1", "s", 560),
]

Now take the following molecule into account.
For the molecule Cc1cccc(N2CCN(Cc3nc(-c4ccc(N5CCCCC5)nc4)no3)CC2)c1 , give its reported RP-LC retention time.
965

Reference source: the METLIN SMRT retention time set (Domingo-Almenara et al. 2019)
